Recorded tr-followup-rxr-bla-agonist-1 hitc by entry
Biological target: human RXRα (Homo sapiens)
Construct: host or cells: GeneBLAzer UAS-bla HEK 293T
Sequence (P19793 227-458 limits assumed): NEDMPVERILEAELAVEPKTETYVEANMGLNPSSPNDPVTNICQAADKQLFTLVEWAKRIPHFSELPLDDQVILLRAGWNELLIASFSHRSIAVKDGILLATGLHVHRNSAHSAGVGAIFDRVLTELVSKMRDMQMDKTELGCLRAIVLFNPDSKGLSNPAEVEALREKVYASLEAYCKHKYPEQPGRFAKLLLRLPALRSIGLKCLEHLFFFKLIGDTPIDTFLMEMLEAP
Test: RXRa-bla-Ag mammalian one-hybrid beta-lactamase assay (TOX21_TR_RXR_BLA_Agonist_Followup_ratio, aeid 2253)
Type: cell-based
Conditions: hit call from tcpl
Structures can show the parent of a compound that is named as a salt.
Recorded Metric: tr-followup-rxr-bla-agonist-1 hitc

NCC(=O)CCC(=O)O [Aminolevulinic acid hydrochloride] | 0
CC(C)(C)CC(C)(C)c1ccc(O)c(Cc2ccc(Cl)cc2Cl)c1 [Clofoctol, reference compound] | 1
N[C@@H](Cc1ccc(Oc2cc(I)c(O)c(I)c2)c(I)c1)C(=O)O [3,3',5'-Triiodo-L-thyronine] | 0
C[C@H](CCC(=O)NCC(=O)O)[C@H]1CC[C@H]2[C@@H]3[C@H](O)C[C@@H]4C[C@H](O)CC[C@]4(C)[C@H]3C[C@H](O)[C@]12C [glycocholic acid] | 0
c1csc(-c2ccc(-c3cccs3)s2)c1 [alpha-Terthiophene] | 1
Nc1ccc(S(=O)(=O)Nc2nccs2)cc1 [Sulfathiazole] | 0
O=C(O)Cc1cc(I)c(Oc2cc(I)c(O)c(I)c2)c(I)c1 [Tetrac, 3,3ʹ,5,5ʹ-tetraiodothyroacetic acid] | 1
C=C(NC(=O)C(=C)NC(=O)c1csc(C2=N[C@@H]3c4csc(n4)[C@H]4NC(=O)c5csc(n5)[C@H]([C@](C)(O)[C@@H](C)O)NC(=O)[C@H]5CSC(=N5)/C(=C/C)NC(=O)[C@H]([C@@H](C)O)NC(=O)c5csc(n5)[C@]3(CC2)NC(=O)[C@H](C)NC(=O)C(=C)NC(=O)[C@H](C)NC(=O)[C@H]([C@@H](C)CC)N[C@@H]2C=Cc3c([C@H](C)O)cc(nc3[C@H]2O)C(=O)O[C@@H]4C)n1)C(N)=O [Thiostrepton] | 0
Cc1ccc(O)cc1 [Cresol] | 0
O=c1[nH]cnc2c1ncn2[C@H]1CC[C@@H](CO)O1 [2',3'-Dideoxyinosine] | 0
CN(C)c1ccc(N=O)cc1 [N,N-dimethyl-4-nitrosoaniline] | 0
Cl.NC(CO)(CO)CO [Tromethamine hydrochloride] | 0
Cc1cccc(C)c1[N+](=O)[O-] [1,3-Dimethyl-2-nitrobenzene] | 0
CSCC[C@H](NC(=O)[C@H](Cc1ccc(OS(=O)(=O)O)cc1)NC(=O)[C@@H](N)CC(=O)O)C(=O)NCC(=O)N[C@@H](Cc1c[nH]c2ccccc12)C(=O)N[C@@H](CCSC)C(=O)N[C@@H](CC(=O)O)C(=O)N[C@@H](Cc1ccccc1)C(N)=O [Sincalide, reference compound] | 1
COc1cc(C)c(/C=C/C(C)=C/C=C/C(C)=C/C(=O)O)c(C)c1C [Acitretin, reference compound] | 1

---

Test: in vitro
Details: rat, gh3-tre-luc cells, AC50 (uM) modified / 1000
Recorded Metric: CC50 at 24 h

Nc1cc2c3c(c1)C(c1ccccc1)=N[C@@H](NC(=O)c1cccnc1)C(=O)N3CC2 [CI-1044] | > 90 µM
CC(C)CC=O [3-Methylbutanal] | > 90 µM
CC(=O)C(C)=O [2,3-Butanedione] | > 90 µM
CC(=O)O[C@H]1CC[C@@]2(C)C(=CC[C@H]3[C@@H]4CC[C@H](C(C)=O)[C@@]4(C)CC[C@@H]32)C1 [3beta-Acetoxy-5-pregnene-20-one] | > 50 µM
CCOC(C)OCC [Acetal] | > 90 µM
CCOC(=O)C(C)(C)C [Ethylpivalate] | > 90 µM
CCN(CC)CCOc1ccc(C(O)(Cc2ccc(Cl)cc2)c2ccc(C)cc2)cc1 (centres unmarked) [Triparanol] | 8.76 µM
CC(O)C(CO)C(C)O (centres unmarked) [3-(Hydroxymethyl)pentane-2,4-diol] | > 90 µM

Data provenance is paper PMC6792352.
